# Target: Carboxypeptidase A1 (Homo sapiens)
# Sequence (P15085 whole entry): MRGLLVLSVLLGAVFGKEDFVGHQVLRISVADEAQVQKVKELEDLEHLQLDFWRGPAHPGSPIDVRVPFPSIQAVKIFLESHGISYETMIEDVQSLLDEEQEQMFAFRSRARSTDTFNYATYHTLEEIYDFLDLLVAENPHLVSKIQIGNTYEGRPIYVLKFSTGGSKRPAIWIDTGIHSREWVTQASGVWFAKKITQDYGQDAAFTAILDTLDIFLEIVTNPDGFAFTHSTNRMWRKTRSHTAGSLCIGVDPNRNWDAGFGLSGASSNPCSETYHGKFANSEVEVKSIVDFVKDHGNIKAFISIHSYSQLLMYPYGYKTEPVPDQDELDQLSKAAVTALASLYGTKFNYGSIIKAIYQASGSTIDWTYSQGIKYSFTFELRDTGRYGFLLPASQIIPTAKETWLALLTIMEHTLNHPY
# Test summary: Inhibition of carboxypeptidase A (unknown origin) assessed as reduction in degradation of N-(4-methoxyphenylazoformyl)-Phe-OH using N-(4-methoxyphenylazoformyl)-Phe-OH as substrate
Starred links: 1 amine or outer side, 2 acyl side, 3 side chain; linkers in the order of their positions; H or OH if unused. Positions of bridges follow the written chain, without caps; N, C: chain ends. Non-standard residues stand in square brackets, D forms with d. Residues, ends and D or L forms follow the SMILES beside them. NMehTyr = CN[C@@H](CCc1ccc(O)cc1)C(=O)O; X1 = NC(=O)N[C@H](CCCCN[*:1])C(=O)[*:2]; hTyr = N[C@@H](CCc1ccc(O)cc1)C(=O)O; NMeA = CN[C@@H](C)C(=O)O; CO = O=C([*:1])[*:2]
Below: a set of entries, each annotated with reported pIC50.
For clarity, pIC50 is expressed as the negative log10 of concentration in mol/L.

CC[C@H](C)[C@@H]1NC(=O)[C@H](NC(=O)N[C@@H](CCCNC(=N)N)C(=O)O)CCCCNC(=O)[C@H]([C@@H](C)CC)NC(=O)[C@H](CCc2ccc(O)cc2)N(C)C(=O)[C@H](CCc2ccc(O)cc2)NC1=O [ANABAENOPEPTIN H] ({Arg-CO}-[dK]I[hTyr][NMehTyr]I; lactam 1-C) ... 4.99

Here is another molecule to look at.
Provide only the value of recorded pIC50 for CC(C)[C@@H]1NC(=O)[C@H](NC(N)=O)CCCCNC(=O)[C@H](Cc2ccccc2)NC(=O)[C@H](C)N(C)C(=O)[C@H](CCc2ccc(O)cc2)NC1=O (cyclo(F[X1]V[hTyr][NMeA])) 5.17

----------
Overview of recorded pIC50 for various compounds
# Target: UniProt P15085
# Test summary: Inhibition of carboxypeptidase A (unknown origin) assessed as reduction in degradation of N-(4-methoxyphenylazoformyl)-Phe-OH using N-(4-methoxyphenylazoformyl)-Phe-OH as substrate
pIC50: −log10 of the molar value. Starred links: 1 amine or outer side, 2 acyl side, 3 side chain; linkers in the order of their positions; H or OH if unused. Positions of bridges follow the written chain, without caps; N, C: chain ends. Non-standard residues stand in square brackets, D forms with d. Residues, ends and D or L forms follow the SMILES beside them. NMehTyr = CN[C@@H](CCc1ccc(O)cc1)C(=O)O; hTyr = N[C@@H](CCc1ccc(O)cc1)C(=O)O; NMeA = CN[C@@H](C)C(=O)O; CO = O=C([*:1])[*:2]

Use these answered entries as a reference point.
CC[C@H](C)[C@@H]1NC(=O)[C@H](CCc2ccc(O)cc2)N(C)C(=O)[C@H](CCc2ccc(O)cc2)NC(=O)[C@H](C(C)C)NC(=O)[C@H](NC(=O)N[C@@H](CCCNC(=N)N)C(=O)O)CCCCNC1=O [ANABAENOPEPTIN 908] ({Arg-CO}-[dK]V[hTyr][NMehTyr]I; lactam 1-C) ... < 4.96
CC[C@H](C)[C@@H]1NC(=O)[C@H](NC(=O)N[C@@H](CCCNC(=N)N)C(=O)O)CCCCNC(=O)[C@H](Cc2ccccc2)NC(=O)[C@H](C)N(C)C(=O)[C@H](CCc2ccc(O)cc2)NC1=O [ANABAENOPEPTIN F] ({Arg-CO}-[dK]I[hTyr][NMeA]F; lactam 1-C) ... < 4.62

Report pIC50, nothing else, for this compound: CC(C)[C@@H]1NC(=O)[C@H](NC(=O)N[C@@H](CCCNC(=N)N)C(=O)O)CCCCNC(=O)[C@H](Cc2ccccc2)NC(=O)[C@H](C)N(C)C(=O)[C@H](CCc2ccc(O)cc2)NC1=O [ANABAENOPEPTIN B] ({Arg-CO}-[dK]V[hTyr][NMeA]F; lactam 1-C) < 4.62
